B1: PBXIP1 (parent)
chain: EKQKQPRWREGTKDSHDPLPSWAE

# Variants of: B1
# method_summary: protein stability index of a GFP-peptide fusion (GPS, HEK-293T) (PSI 1-6); higher = more stable;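 note: lentivirally expressed fusions sorted by FACS into six bins by GFP to DsRed ratio, PSI derived from sequencing read proportions per bin multiplied by bin number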
# applied_conditions: c terminus: a fixed tail appended
Tick rule met if protein stability index is 2 or greater. Tick rule not met if protein stability index is less than 2.

K2W ... rule not met
S21K ... rule not met
E24T ... rule met
W8T ... rule not met
R9P ... rule not met

From here, focus on the item given below.
Lookup: Does protein stability index meet or surpass 2 for "G11M" ?
Found: rule met
